tested on: OVCAR-5 complex spheroids with HUVEC/MSC, viability, % test/control; assay: Anticancer human tumor OVCAR-5 cell line growth inhibition [AhR]; conditions: curve of first compound; second compound 3.16 µM;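 also: spheroids exposed to compounds for 7 days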
Parameter measured: pIC50
Hey, just a heads up that pIC50 is the negative log base 10 of the concentration in molar.

## Task What does the data say about its pIC50? Entry: O=C(C=Cn1cnc(-c2cc(C(F)(F)F)cc(C(F)(F)F)c2)n1)NNc1cnccn1 + Cc1ccccc1N=Nc1ccc(NC(=O)c2ccnn2C)c(C)c1
## Result 5.67

## Task What does the data say about its pIC50? Entry: COc1cc(C2c3cc4c(cc3C(OC3OC5COC(C)OC5C(O)C3O)C3COC(=O)C23)OCO4)cc(OC)c1O (stereo not drawn) + CC(CO)NC(=O)c1cc(-c2ccc(Cl)cc2)nn(-c2cnn(C)c2)c1=O
## Result 5.41

## Task What does the data say about its pIC50? Entry: CC(C)CC(NC(=O)C(Cc1ccccc1)NC(=O)c1cnccn1)B(O)O (stereo not drawn) + Cc1cncc(-c2nc(NCCc3c[nH]c4ccccc34)c3ncn(C(C)C)c3n2)c1
## Result 7.39

## Task What does the data say about its pIC50? Entry: COc1cc(C2c3cc4c(cc3C(OC3OC5COC(C)OC5C(O)C3O)C3COC(=O)C23)OCO4)cc(OC)c1O (stereo not drawn) + Cc1ccccc1N=Nc1ccc(NC(=O)c2ccnn2C)c(C)c1
## Result 5.56

## Task What does the data say about its pIC50? Entry: COc1cccc2c1C(=O)c1c(O)c3c(c(O)c1C2=O)CC(O)(C(=O)CO)CC3OC1CC(N)C(O)C(C)O1 (stereo not drawn) + Cc1ccccc1N=Nc1ccc(NC(=O)c2ccnn2C)c(C)c1
## Result 6.57

## Task What does the data say about its pIC50? Entry: O=C(C=Cn1cnc(-c2cc(C(F)(F)F)cc(C(F)(F)F)c2)n1)NNc1cnccn1 + CC(CO)NC(=O)c1cc(-c2ccc(Cl)cc2)nn(-c2cnn(C)c2)c1=O
## Result 5.69

## Task What does the data say about its pIC50? Entry: Nc1ccccc1NC(=O)c1ccc(CNC(=O)OCc2cccnc2)cc1 + Cc1cncc(-c2nc(NCCc3c[nH]c4ccccc34)c3ncn(C(C)C)c3n2)c1
## Result 6.26

## Task What does the data say about its pIC50? Entry: CCc1c2c(nc3ccc(O)cc13)-c1cc3c(c(=O)n1C2)COC(=O)[C@]3(O)CC + Cc1cncc(-c2nc(NCCc3c[nH]c4ccccc34)c3ncn(C(C)C)c3n2)c1
## Result 8.42

## Task What does the data say about its pIC50? Entry: COc1cc(Nc2ncc3c(n2)-c2ccc(Cl)cc2C(c2c(F)cccc2OC)=NC3)ccc1C(=O)O + Cc1cncc(-c2nc(NCCc3c[nH]c4ccccc34)c3ncn(C(C)C)c3n2)c1
## Result 6.06

## Task What does the data say about its pIC50? Entry: CC[C@@]1(O)C(=O)OCc2c1cc1n(c2=O)Cc2cc3c(CN(C)C)c(O)ccc3nc2-1 + Cc1cncc(-c2nc(NCCc3c[nH]c4ccccc34)c3ncn(C(C)C)c3n2)c1
## Result 7.60

## Task What does the data say about its pIC50? Entry: O=C(C=Cc1cccc(S(=O)(=O)Nc2ccccc2)c1)NO + CC(CO)NC(=O)c1cc(-c2ccc(Cl)cc2)nn(-c2cnn(C)c2)c1=O
## Result 6.09

## Task What does the data say about its pIC50? Entry: COc1ccc([C@@H](O)c2cc(-c3ncnc4cc(N5CCOCC5)ccc34)c(F)cc2Cl)nn1 + Cc1cncc(-c2nc(NCCc3c[nH]c4ccccc34)c3ncn(C(C)C)c3n2)c1
## Result 5.78

## Task What does the data say about its pIC50? Entry: O=C(C=Cc1cccc(S(=O)(=O)Nc2ccccc2)c1)NO + Cc1cncc(-c2nc(NCCc3c[nH]c4ccccc34)c3ncn(C(C)C)c3n2)c1
## Result 6.05

## Task What does the data say about its pIC50? Entry: CCc1c2c(nc3ccc(O)cc13)-c1cc3c(c(=O)n1C2)COC(=O)[C@]3(O)CC + Cc1ccccc1N=Nc1ccc(NC(=O)c2ccnn2C)c(C)c1
## Result 8.02

## Task What does the data say about its pIC50? Entry: CC1COCCN1c1cc(C2(S(C)(=N)=O)CC2)nc(-c2ccnc3[nH]ccc23)n1 (stereo not drawn) + CC(CO)NC(=O)c1cc(-c2ccc(Cl)cc2)nn(-c2cnn(C)c2)c1=O
## Result 5.05

----------
tested on: OVCAR-5 complex spheroids with HUVEC/MSC, viability, % test/control; assay: Anticancer human tumor OVCAR-5 cell line growth inhibition [AhR]; conditions: second compound 3.16 µM; first compound 0.316 µM; stronger effect = lower value;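 also: spheroids exposed to compounds for 7 days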;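 as to viability, T/C: 100% = DMSO vehicle control wells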
Parameter measured: viability, T/C (%)
Output spec: scalar in %, unitless text.

## Task Short answer please: viability, T/C, OVCAR-5 complex spheroids with HUVEC/MSC, viability, % test/control, entry O=C(c1cc(Cc2n[nH]c(=O)c3ccccc23)ccc1F)N1CCN(C(=O)C2CC2)CC1 + Cc1ccccc1N=Nc1ccc(NC(=O)c2ccnn2C)c(C)c1
## Result 114

## Task Short answer please: viability, T/C, OVCAR-5 complex spheroids with HUVEC/MSC, viability, % test/control, entry CC1COCCN1c1cc(C2(S(C)(=N)=O)CC2)nc(-c2ccnc3[nH]ccc23)n1 (stereo not drawn) + CC(CO)NC(=O)c1cc(-c2ccc(Cl)cc2)nn(-c2cnn(C)c2)c1=O
## Result 100

## Task Short answer please: viability, T/C, OVCAR-5 complex spheroids with HUVEC/MSC, viability, % test/control, entry Nc1ccccc1NC(=O)c1ccc(CNC(=O)OCc2cccnc2)cc1 + Cc1cncc(-c2nc(NCCc3c[nH]c4ccccc34)c3ncn(C(C)C)c3n2)c1
## Result 62.7

----------
system: OVCAR-5 complex spheroids with HUVEC/MSC, viability, % test/control; assay: Anticancer human tumor OVCAR-5 cell line growth inhibition [AhR]; conditions: second compound 1 µM; first compound 0.000316 µM; stronger effect = lower value;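 also: spheroids exposed to compounds for 7 days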;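 as to viability, T/C: 100% = DMSO vehicle control wells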
Parameter measured: viability, T/C

## Task What does the data say about its viability, T/C? Entry: CC[C@@]1(O)C(=O)OCc2c1cc1n(c2=O)Cc2cc3c(CN(C)C)c(O)ccc3nc2-1 + CC(CO)NC(=O)c1cc(-c2ccc(Cl)cc2)nn(-c2cnn(C)c2)c1=O
## Result 119%

## Task What does the data say about its viability, T/C? Entry: CC[C@@]1(O)C(=O)OCc2c1cc1n(c2=O)Cc2cc3c(CN(C)C)c(O)ccc3nc2-1 + Cc1ccccc1N=Nc1ccc(NC(=O)c2ccnn2C)c(C)c1
## Result 112%

## Task What does the data say about its viability, T/C? Entry: Cn1ncnc1C1c2n[nH]c(=O)c3cc(F)cc(c23)NC1c1ccc(F)cc1 (stereo unspecified) + Cc1ccccc1N=Nc1ccc(NC(=O)c2ccnn2C)c(C)c1
## Result 111%

## Task What does the data say about its viability, T/C? Entry: Cn1ncnc1C1c2n[nH]c(=O)c3cc(F)cc(c23)NC1c1ccc(F)cc1 (stereo unspecified) + CC(CO)NC(=O)c1cc(-c2ccc(Cl)cc2)nn(-c2cnn(C)c2)c1=O
## Result 112%

## Task What does the data say about its viability, T/C? Entry: CC[C@@]1(O)C(=O)OCc2c1cc1n(c2=O)Cc2cc3c(CN(C)C)c(O)ccc3nc2-1 + Cc1cncc(-c2nc(NCCc3c[nH]c4ccccc34)c3ncn(C(C)C)c3n2)c1
## Result 93.6%

## Task What does the data say about its viability, T/C? Entry: Cn1ncnc1C1c2n[nH]c(=O)c3cc(F)cc(c23)NC1c1ccc(F)cc1 (stereo unspecified) + Cc1cncc(-c2nc(NCCc3c[nH]c4ccccc34)c3ncn(C(C)C)c3n2)c1
## Result 98.1%

----------
Exercise: for every item that follows, state its recorded viability, T/C.
test system: OVCAR-5 complex spheroids with HUVEC/MSC, viability, % test/control; assay: Anticancer human tumor OVCAR-5 cell line growth inhibition [AhR]; conditions: second compound 0.316 µM; first compound 0.316 µM; stronger effect = lower value;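 also: spheroids exposed to compounds for 7 days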;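 as to viability, T/C: 100% = DMSO vehicle control wells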
Output spec: scalar in %, unitless text.

## Task Short answer please: viability, T/C, OVCAR-5 complex spheroids with HUVEC/MSC, viability, % test/control, entry CC1(C)CCC(CN2CCN(c3ccc(C(=O)NS(=O)(=O)c4ccc(NCC5CCOCC5)c([N+](=O)[O-])c4)c(Oc4cnc5[nH]ccc5c4)c3)CC2)=C(c2ccc(Cl)cc2)C1 + Cc1cncc(-c2nc(NCCc3c[nH]c4ccccc34)c3ncn(C(C)C)c3n2)c1
## Result 102

## Task Short answer please: viability, T/C, OVCAR-5 complex spheroids with HUVEC/MSC, viability, % test/control, entry CC1COCCN1c1cc(-c2ccnn2C)c2ccnc(-c3ccn[nH]3)c2n1 (stereo not drawn) + Cc1ccccc1N=Nc1ccc(NC(=O)c2ccnn2C)c(C)c1
## Result 42.5

## Task Short answer please: viability, T/C, OVCAR-5 complex spheroids with HUVEC/MSC, viability, % test/control, entry CC1COCCN1c1cc(C2(S(C)(=N)=O)CC2)nc(-c2ccnc3[nH]ccc23)n1 (stereo not drawn) + Cc1ccccc1N=Nc1ccc(NC(=O)c2ccnn2C)c(C)c1
## Result 108

Reference source for all entries: PubChem BioAssay AID1919015
